Cited source for all entries: patent CN112679613A

biological target: 肝癌Huh-7细胞 (Huh-7癌细胞抗原; Huh-7细胞裂解蛋白); test: indirect ELISA; plate coated with 2 μg/mL Huh-7 cell antigen; purified ascites antibody in 2-fold dilutions
RESULT_TYPE: 抗体效价

- BINDER: "6G5单克隆抗体 (antibody, part only; not given: Light chain variable region, V domains shown, part only) VH: EVKLVESGGGLVKPGGSLKLSCAASGFTFSAYAMTWVRQIPEKRLEWVAAISPTGSLYFPGSVSGRFTISRDNARNICYLQMNSLRSDDTAMYYCARGVEADSQYFDKWGQGTTLTVSS"
  OBSERVED_RESULT: "5.12e+06"
- BINDER: "6F4单克隆抗体 (antibody, V domains shown) VH: EVKLVESGGGLVKPGGSLKLSCAASGFTFSQYASLWVRQIPEKRLEWVAAISGQGSLYFPDSVCTRFTISRDNARNICYLQMNSLRSDDTAMYYCARGAAADGGYFDTWGQGTTLTVSS VL: DIVLTQSPASLAVSLGQRATISCSASESVEFSGTSLTRWYQQKPGQPPKLLIYASQNVEGGVPARFSGSGSGTDFSLNIHPVEEDDIAMYFCCYSMKVPPRFGAGTKLELK"
  OBSERVED_RESULT: "2.56e+06"
- BINDER: "2D3单克隆抗体 (antibody, V domains shown) VH: EVKLVESGGGLVKPGGSLKLSCAASGFTFSSAAMRWVRQIPEKRLEWVARIEEGGSAYFPDSVLVRFTISRDNARNICYLQMNSLRSDDTAMYYCARSRESPAGYFKLWGQGTTLTVSS VL: DIVLTQSPASLAVSLGQRATISCCASESVHPYGTSLAMWYQQKPGQPPKLLIYASSRVEPGVPARFSGSGSGTDFSLNIHPVEEDDIAMYFCSSSGQVPARFGAGTKLELK"
  OBSERVED_RESULT: "5.12e+06"
